Test description: GSH reactivity screen (mercury orange fluorescence, 96-well)
Assay type: physicochemical
Measurement context: test compound with 200 μM GSH, 1 h at room temperature; no metabolic activation, no glutathione transferase
Observable: result in the GSH screen (in words)

Example cases with answers are listed next.
Compound	Observable	Measured result
O=[N+]([O-])c1ccc(Cl)c([N+](=O)[O-])c1	result in the GSH screen (in words)	non-reactive
Cc1ccccc1	result in the GSH screen (in words)	non-reactive
Nc1ccc(Cl)c([N+](=O)[O-])c1	result in the GSH screen (in words)	non-reactive
O=C(CCCN1CCC(O)(c2ccc(Cl)cc2)CC1)c1ccc(F)cc1	result in the GSH screen (in words)	non-reactive
COc1ccc(O)c(C(C)(C)C)c1 [Butylated hydroxyanisole]	result in the GSH screen (in words)	non-reactive
C/C=C/C=O [trans Crotonaldehyde]	result in the GSH screen (in words)	reactive
O=C1NC(=O)C(c2ccccc2)(c2ccccc2)N1	result in the GSH screen (in words)	non-reactive
COc1ccc(Cl)c([N+](=O)[O-])c1	result in the GSH screen (in words)	non-reactive

Which result in the GSH screen (in words) is listed for O=C(O)Cc1ccccc1Nc1c(Cl)cccc1Cl ?
non-reactive

Which result in the GSH screen (in words) is listed for c1ccccc1 ?
non-reactive

Which result in the GSH screen (in words) is listed for O=C1C=C(c2ccccc2)C(=O)N1 [Phenylmaleimide] ?
reactive

Which result in the GSH screen (in words) is listed for CC/C(=C(\c1ccccc1)c1ccc(OCCN(C)C)cc1)c1ccccc1 ?
non-reactive

Which result in the GSH screen (in words) is listed for O=[N+]([O-])c1csc(Br)n1 ?
reactive
